All values here come from the NIST ThermoML archive (doi:10.1016/j.tca.2007.07.008).

Each entry below carries its reported mass density.
details: 298.15 K; 101.33 kPa; Liquid; Vibrating tube method

COMPOUND | mass density, kg/m3
CNC=O [N-methylformamide] | 998.92
CC(=O)N(C)C [N,N-dimethylethanamide] | 936.5
CN(C)C=O [dimethylformamide] | 943.93
CC(C)=O [acetone] | 784.65
NC=O [formamide] | 1129.15

====

Each entry below carries its reported refractive index.
assay: refractive index (Na D-line) (dimensionless); conditions: 298.15 K; 101.33 kPa; Liquid; Standard Abbe refractometry
MEASURED_ENDPOINT: refractive index

COMPOUND | MEASURED_ENDPOINT | RECORDED_VALUE
CN(C)C=O [dimethylformamide] | refractive index | 1.4276
CC(C)=O | refractive index | 1.3563
CC(=O)N(C)C [N,N-dimethylethanamide] | refractive index | 1.436
NC=O [formamide] | refractive index | 1.4465
CNC=O [N-methylformamide] | refractive index | 1.4308
